Hello, the source for this data is ChEMBL document CHEMBL4043268, in case you need it.

pIC50: −log10 of the molar value.
pIC50 values recorded for Acetylcholinesterase (Homo sapiens, UniProt P22303)

structure.string	measured.target	limit.qualifier	pIC50
CN1c2ccccc2C(n2cncn2)c2ccccc21	Acetylcholinesterase (Homo sapiens, UniProt P22303)	=	4.73
C[n+]1c2ccccc2c(-c2ccccc2)c2ccccc21	Acetylcholinesterase (Homo sapiens, UniProt P22303)	=	4.21
Cc1ccc(C2c3ccccc3N(C)c3ccccc32)cc1	Acetylcholinesterase (Homo sapiens, UniProt P22303)	<	4.70
C[n+]1c2ccccc2c(-c2ccc(NC(=O)C(F)(F)F)cc2)c2ccccc21	Acetylcholinesterase (Homo sapiens, UniProt P22303)	=	4.44
Cc1cc(-c2c3ccccc3[n+](C)c3ccccc23)cc(C)c1O	Acetylcholinesterase (Homo sapiens, UniProt P22303)	=	4.30
COc1ccc(-c2c3ccccc3[n+](C)c3ccccc23)cc1	Acetylcholinesterase (Homo sapiens, UniProt P22303)	=	4.86
C[n+]1c2ccccc2c(-c2c(O)ccc3ccccc23)c2ccccc21	Acetylcholinesterase (Homo sapiens, UniProt P22303)	<	4.70
CN1c2ccccc2C(n2cnc([N+](=O)[O-])n2)c2ccccc21	Acetylcholinesterase (Homo sapiens, UniProt P22303)	=	4.78
CCN(CC)c1ccc(-c2c3ccccc3[n+](C)c3ccccc23)cc1	Acetylcholinesterase (Homo sapiens, UniProt P22303)	=	4.60
Cc1cc(-c2c3ccccc3[n+](C)c3ccccc23)cc(C)c1C	Acetylcholinesterase (Homo sapiens, UniProt P22303)	=	4.22
C[n+]1c2ccccc2c(-c2ccc(F)cc2)c2ccccc21	Acetylcholinesterase (Homo sapiens, UniProt P22303)	=	4.49
C[n+]1c2ccccc2c(-c2cccs2)c2ccccc21	Acetylcholinesterase (Homo sapiens, UniProt P22303)	=	4.39
CN1c2ccccc2C(n2nnc3ccccc32)c2ccccc21	Acetylcholinesterase (Homo sapiens, UniProt P22303)	=	4.91
C[n+]1c2ccccc2c(-c2cc(C(C)(C)C)cc(C(C)(C)C)c2O)c2ccccc21	Acetylcholinesterase (Homo sapiens, UniProt P22303)	<	4.70
CN1c2ccccc2C(N2CCOCC2)c2ccccc21	Acetylcholinesterase (Homo sapiens, UniProt P22303)	=	4.91
C[n+]1c2ccccc2c(-c2ccc(N)cc2)c2ccccc21	Acetylcholinesterase (Homo sapiens, UniProt P22303)	=	5.12
Cc1ccc(-c2c3ccccc3[n+](C)c3ccccc23)cc1	Acetylcholinesterase (Homo sapiens, UniProt P22303)	=	4.38

###

// each record: one item and its pKi for Acetylcholinesterase (Homo sapiens, UniProt P22303)
pKi: −log10 of the molar value.
reported.endpoint: pKi

structure.string	readout.value
C[n+]1c2ccccc2c(-c2ccc(N)cc2)c2ccccc21	5.58
CN1c2ccccc2C(N2CCSCC2)c2ccccc21	5.43
CN1c2ccccc2C(n2cncn2)c2ccccc21	5.48
CN1c2ccccc2C(N2CCOCC2)c2ccccc21	5.40
CN1c2ccccc2C(n2nnc3ccccc32)c2ccccc21	5.19
CCN(CC)c1ccc(-c2c3ccccc3[n+](C)c3ccccc23)cc1	4.88

###

# measured.target: Cholinesterase (Equus caballus, UniProt P81908)
# Sequence (P81908 whole entry): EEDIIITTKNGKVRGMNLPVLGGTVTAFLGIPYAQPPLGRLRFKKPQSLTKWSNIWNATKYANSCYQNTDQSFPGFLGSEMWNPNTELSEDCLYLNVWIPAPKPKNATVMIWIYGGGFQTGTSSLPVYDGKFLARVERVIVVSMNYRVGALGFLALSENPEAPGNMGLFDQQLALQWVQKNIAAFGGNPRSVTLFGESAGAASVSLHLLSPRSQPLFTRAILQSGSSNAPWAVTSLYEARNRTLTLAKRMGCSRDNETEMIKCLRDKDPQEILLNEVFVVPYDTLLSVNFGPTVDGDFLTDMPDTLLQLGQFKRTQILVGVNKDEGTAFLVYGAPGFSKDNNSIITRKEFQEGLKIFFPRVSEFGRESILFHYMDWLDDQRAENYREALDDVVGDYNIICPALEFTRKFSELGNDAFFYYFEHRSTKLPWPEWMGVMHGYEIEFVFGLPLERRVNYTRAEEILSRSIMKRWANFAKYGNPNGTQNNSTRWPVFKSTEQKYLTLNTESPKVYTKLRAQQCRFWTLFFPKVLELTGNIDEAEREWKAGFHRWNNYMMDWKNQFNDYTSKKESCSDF
# log10(IC50) per record follows
reported.endpoint: log10(IC50) (log10 of the value in µM)

structure.string	measured.target	log10(IC50)
Cc1cc(-c2c3ccccc3[n+](C)c3ccccc23)cc(C)c1O	Cholinesterase (Equus caballus, UniProt P81908)	1.79
C[n+]1c2ccccc2c(-c2cccs2)c2ccccc21	Cholinesterase (Equus caballus, UniProt P81908)	1.77
CN1c2ccccc2C(n2cncn2)c2ccccc21	Cholinesterase (Equus caballus, UniProt P81908)	-0.09
C[n+]1c2ccccc2c(-c2ccc(N)cc2)c2ccccc21	Cholinesterase (Equus caballus, UniProt P81908)	1.59
COc1ccc(-c2c3ccccc3[n+](C)c3ccccc23)cc1	Cholinesterase (Equus caballus, UniProt P81908)	1.77
CN1c2ccccc2C(n2nnc3ccccc32)c2ccccc21	Cholinesterase (Equus caballus, UniProt P81908)	0.03
CN1c2ccccc2C(n2c3ccccc3c3ccccc32)c2ccccc21	Cholinesterase (Equus caballus, UniProt P81908)	1.11
CN1c2ccccc2C(c2ccc(N)cc2)c2ccccc21	Cholinesterase (Equus caballus, UniProt P81908)	1.82

###

# measured.target: Liver carboxylesterase (Sus scrofa, UniProt Q29550)
# Sequence (Q29550 whole entry): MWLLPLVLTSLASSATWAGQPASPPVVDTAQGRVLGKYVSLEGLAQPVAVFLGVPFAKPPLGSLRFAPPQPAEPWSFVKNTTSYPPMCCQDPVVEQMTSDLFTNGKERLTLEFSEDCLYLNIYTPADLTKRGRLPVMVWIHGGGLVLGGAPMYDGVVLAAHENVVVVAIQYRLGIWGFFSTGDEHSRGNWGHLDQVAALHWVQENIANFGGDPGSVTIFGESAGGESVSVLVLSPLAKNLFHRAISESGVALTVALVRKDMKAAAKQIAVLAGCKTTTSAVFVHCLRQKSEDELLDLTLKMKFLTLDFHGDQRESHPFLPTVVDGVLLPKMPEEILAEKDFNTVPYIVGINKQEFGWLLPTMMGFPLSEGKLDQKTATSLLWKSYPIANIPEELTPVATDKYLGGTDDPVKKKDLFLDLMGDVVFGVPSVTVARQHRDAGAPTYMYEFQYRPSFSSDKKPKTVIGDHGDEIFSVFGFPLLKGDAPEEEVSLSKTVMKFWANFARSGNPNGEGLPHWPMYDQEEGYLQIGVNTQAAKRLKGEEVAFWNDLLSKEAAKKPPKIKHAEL
# assay.procedure: in vitro
# condition.set: pig, probe 4-nitrophenol acetate
# Description: Inhibition of pig liver carboxylesterase at 20 uM using 4-nitrophenol acetate as substrate by spectrophotometric analysis
Catalogue of compounds with associated inhibition at 20 µM

structure.string	inhibition at 20 µM / %
CN1c2ccccc2C(n2cnc([N+](=O)[O-])n2)c2ccccc21	10.6
CN1c2ccccc2C(N2CCSCC2)c2ccccc21	5
C[n+]1c2ccccc2c(-c2c(O)ccc3ccccc23)c2ccccc21	8.9
C[n+]1c2ccccc2c(-c2cccs2)c2ccccc21	6.1
C[n+]1c2ccccc2c(-c2ccccc2)c2ccccc21	22.6
COc1ccc(-c2c3ccccc3[n+](C)c3ccccc23)cc1	7.8
C[n+]1c2ccccc2c(-c2ccc(F)cc2)c2ccccc21	5.9
C[n+]1c2ccccc2c(-c2ccc(N)cc2)c2ccccc21	18.6
C[n+]1c2ccccc2c(-c2cc(C(C)(C)C)cc(C(C)(C)C)c2O)c2ccccc21	31.2

###

List of inhibition values.
# measured.target: Cholinesterase (Equus caballus)
# assay.procedure: Inhibition of equine serum BChE at 20 uM using butyrylthiocholine iodide as substrate preincubated for 10 mins followed by substrate addition by Ellman's method

structure.string	inhibition
CN1c2ccccc2C(c2ccc(NC(=O)C(F)(F)F)cc2)c2ccccc21	7.1%
C[n+]1c2ccccc2c(-c2ccc(NC(=O)C(F)(F)F)cc2)c2ccccc21	7.7%
CN1c2ccccc2C(c2ccc(F)cc2)c2ccccc21	11.1%
CN1c2ccccc2C(c2cccs2)c2ccccc21	12.3%
CC(=O)Nc1ccc(C2c3ccccc3N(C)c3ccccc32)cc1	10.8%
C[n+]1c2ccccc2c(-c2ccc(F)cc2)c2ccccc21	8.2%
Cc1ccc(C2c3ccccc3N(C)c3ccccc32)cc1	10.6%
COc1ccc(C2c3ccccc3N(C)c3ccccc32)cc1	11.6%

###

For Cholinesterase (Equus caballus, UniProt P81908), measured IC50 is reported for the entries below.

structure.string	measured.target	IC50
CN1c2ccccc2C(c2ccc(NC(=O)C(F)(F)F)cc2)c2ccccc21	Cholinesterase (Equus caballus, UniProt P81908)	> 20 µM
C[n+]1c2ccccc2c(-c2ccc(NC(=O)C(F)(F)F)cc2)c2ccccc21	Cholinesterase (Equus caballus, UniProt P81908)	> 20 µM
C[n+]1c2ccccc2c(-c2ccc(F)cc2)c2ccccc21	Cholinesterase (Equus caballus, UniProt P81908)	> 20 µM
